The measurements presented in this section are drawn from patent US6545053B1.

- system tested: human β3 (Homo sapiens)
- Construct: And then full length of human β3 gene was cloned using this fragment as a probe; expressed in transfected cells; host or cells: CHO cells (Chinese hamster ovary), pcDNA3 vector
- Sequence (P13945 whole entry, the tested form may be a part): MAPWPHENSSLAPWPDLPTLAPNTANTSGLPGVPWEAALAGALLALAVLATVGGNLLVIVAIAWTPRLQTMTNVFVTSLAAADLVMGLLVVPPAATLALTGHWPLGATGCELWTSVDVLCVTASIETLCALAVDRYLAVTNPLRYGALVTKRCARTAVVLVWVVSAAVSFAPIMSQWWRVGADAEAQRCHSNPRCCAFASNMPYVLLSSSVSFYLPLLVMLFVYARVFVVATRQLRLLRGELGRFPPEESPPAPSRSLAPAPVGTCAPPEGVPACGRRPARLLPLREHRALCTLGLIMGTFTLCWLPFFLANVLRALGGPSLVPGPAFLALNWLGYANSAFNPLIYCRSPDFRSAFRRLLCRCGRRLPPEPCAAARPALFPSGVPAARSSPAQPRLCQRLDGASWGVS
- test summary: Human β3-agonist activity (cAMP in CHO cells transfected with human β3 gene)
- Assay type: cell-based
Where a name gives a salt, the structure may show the parent alone.
experimental endpoint: pEC50
Answers are plain numbers, as −log10 of the molar value.

// below: answered molecules
CS(=O)(=O)Nc1cc(O)cc(C(O)CNCCOc2ccc3c(c2)[nH]c2ccccc23)c1 (racemic) [Example 62, Hydrochloride]	6.68
CN(C)S(=O)(=O)Nc1cc(C(O)CNCCOc2ccc3c(c2)oc2ccccc23)ccc1O (racemic) [Example 43, Hydrochloride]	7.07
CS(=O)(=O)Nc1cc([C@@H](O)CNCCOc2ccc3c(c2)oc2ccccc23)ccc1O [Example 69, Hydrochloride]	10.80

Kindly consider the entry below.
What value of pEC50 has been reported for the following molecule? CS(=O)(=O)Nc1cc(C(O)CNCCOc2ccc3c(c2)sc2ccccc23)ccc1O (racemic) [Example 38, Hydrochloride] 11.22

* * *

- system tested: human β3 (Homo sapiens)
- Construct: And then full length of human β3 gene was cloned using this fragment as a probe; expressed in transfected cells; host or cells: CHO cells (Chinese hamster ovary), pcDNA3 vector
- test summary: Human β3-agonist activity (cAMP in CHO cells transfected with human β3 gene)
- Type: cell-based
Counter-ions that a name gives are not always drawn.
experimental endpoint: EC50 (nM)
One number for each entry, in nM.

O=CNc1cccc(C(O)CNCCOc2ccc3c(c2)[nH]c2ccccc23)c1 (racemic) [Example 17, Hydrochloride]	910
CS(=O)(=O)Nc1cccc([C@@H](O)CNCCOc2ccc3c(c2)oc2ccccc23)c1 [Example 70, Hydrochloride]	300

Hey, can you go through the list below and give me EC50 for every item?
1. CS(=O)(=O)Nc1cc(C(O)CNCCOc2ccc3c(c2)[nH]c2ccccc23)ccc1Cl (racemic) [Example 6, Hydrochloride]
2. CS(=O)(=O)Nc1cc(C(O)CNCCOc2ccc3c(c2)oc2ccccc23)ccc1O (racemic) [Example 4, Hydrochloride]

1. 33
2. 0.52

Hey, can you go through the list below and give me EC50 for every item?
1. Oc1ccc(C(O)CNCCOc2ccc3c(c2)[nH]c2ccccc23)cc1 (racemic) [Example 29, Hydrochloride]
2. CS(=O)(=O)Nc1cc(C(O)CNCCOc2ccc3c(c2)oc2ccccc23)ccc1Cl (racemic) [Example 57, Hydrochloride]
3. OCc1cc(C(O)CNCCOc2ccc3c(c2)[nH]c2ccccc23)ccc1O (racemic) [Example 67, Hydrochloride]
4. CN(C)S(=O)(=O)Nc1cccc(C(O)CNCCOc2ccc3c(c2)[nH]c2ccccc23)c1 (racemic) [Example 48, Hydrochloride]
5. CS(=O)(=O)Nc1cc([C@@H](O)CNCCOc2ccc3c(c2)[nH]c2ccccc23)ccc1Cl [Example 79, Hydrochloride]
6. CS(=O)(=O)Nc1cc(C(O)CNCCOc2ccc3c(c2)oc2ccccc23)ccc1F (racemic) [Example 55, Hydrochloride]
7. O=S(=O)(Cc1ccccc1)Nc1cccc(C(O)CNCCOc2ccc3c(c2)[nH]c2ccccc23)c1 (racemic) [Example 8, Hydrochloride]
8. CS(=O)(=O)Nc1cc(C(O)CNCCOc2ccc3c(c2)[nH]c2ccccc23)ccc1N (racemic) [Example 82, Hydrochloride]

[250, 230, 28, 220, 1.2, 230, 720, 2800]

What value of EC50 has been reported for the following compound? CS(=O)(=O)Nc1cc([C@@H](O)CNCCOc2ccc3c(c2)[nH]c2ccccc23)ccc1O [Example 12, Hydrochloride] 0.14
